test: Cytotoxicity against CEM cells assessed as reduction of cell growth; format: cell-based; settings: human, CEM (CCRF-CEM) cells
Here, each record is paired with measured CC50 data.
measureName: CC50

>  <inputSmiles>
NC(=NC(=O)NC[C@@H](CO)OCP(=O)(O)O)NC=O

>  <testValue>
≥ 100 µg/mL

$$$$
>  <inputSmiles>
Nc1ncn(CCOCP(=O)(O)O)c(=O)n1

>  <testValue>
96 µg/mL

$$$$
>  <inputSmiles>
Nc1ncn(C[C@@H](CO)OCP(=O)(O)O)c(=O)n1

>  <testValue>
28 µg/mL

$$$$
>  <inputSmiles>
Nc1cnn(C[C@@H](CO)OCP(=O)(O)O)c(=O)n1

>  <testValue>
> 100 µg/mL

$$$$
>  <inputSmiles>
NC(N)=NC(=O)NC[C@@H](CO)OCP(=O)(O)O

>  <testValue>
> 100 µg/mL

$$$$
>  <inputSmiles>
C[C@H](Cn1cnc(N)nc1=O)OCP(=O)(O)O

>  <testValue>
> 100 µg/mL

$$$$
>  <inputSmiles>
Nc1ncn(C[C@H](O)CO)c(=O)n1

>  <testValue>
> 100 µg/mL

$$$$
>  <inputSmiles>
Nc1ncn(C[C@H](CO)OCP(=O)(O)O)c(=O)n1

>  <testValue>
> 100 µg/mL

$$$$

# credit: ChEMBL document CHEMBL1142867
